measurement protocol: Phase 1 clinical trial: plasma pharmacokinetics
Assay type: in vivo, human
settings: human, plasma, oral, Cycle 2 Day 1; 20 mg to 240 mg once daily; cut-off April 2023; read-out: geometric mean of AUC0-24, range over all dose groups
test readout: AUC(0-t)

Please look at this compound and report its AUC(0-t): CC1(C)Oc2cc(Cl)ccc2[C@@H]2OCC3(CCN(CCn4ccnc4)CC3)C[C@H]21 [Compound 1] 556 to 6670 ng·h/mL

###

measurement protocol: Phase 1 clinical trial: plasma pharmacokinetics
Type: in vivo, human
settings: human, plasma, oral, 180 mg, Cycle 1 Day 1; 180 mg, QD; cut-off April 2023; read-out: Cmax (median)
test readout: Cmax (ng/mL)
Expressed in ng/mL, but write only the number.

Determine from records and report Cmax for CC1(C)Oc2cc(Cl)ccc2[C@@H]2OCC3(CCN(CCn4ccnc4)CC3)C[C@H]21 [Compound 1] 140

###

measurement protocol: Phase 1 clinical trial: plasma pharmacokinetics
Format: in vivo, human
settings: human, plasma, oral, 20 mg, Cycle 2 Day 1; 20 mg, QD; cut-off April 2023; read-out: Cmax (geometric mean)
Procedure: Summary statistics based on preliminary data were obtained for the pharmacokinetics of Compound 1 in patients receiving once-daily doses ranging from 20 mg to 240 mg (Table 5). The mean plasma concentration-time curves of Compound 1 in the once-daily dose groups ranging from 20 mg to 240 mg are shown in Figure 11. In this study, one cycle consists of 28 days, and Cycle 1 Day 1 refers to Day 1 of the first cycle. […] Accumulation was observed after repeated administration. […]
test readout: Cmax (ng/mL)
Respond with the bare value in ng/mL.

Look up and state reported Cmax for `CC1(C)Oc2cc(Cl)ccc2[C@@H]2OCC3(CCN(CCn4ccnc4)CC3)C[C@H]21` 28

###

measurement protocol: Phase 1 clinical trial: plasma pharmacokinetics
Format: in vivo, human
settings: human, plasma, oral, 180 mg, Cycle 1 Day 1; 180 mg, QD; cut-off April 2023; read-out: AUC0-24 (geometric mean)
test readout: AUC(0-t) (ng·h/mL)
Respond numerically; units are ng·h/mL and should not be typed.

Give the reported AUC(0-t) for this molecule. `CC1(C)Oc2cc(Cl)ccc2[C@@H]2OCC3(CCN(CCn4ccnc4)CC3)C[C@H]21` 1060

###

measurement protocol: Phase 1 clinical trial: plasma pharmacokinetics
Assay type: in vivo, human
settings: human, plasma, oral, 120 mg, Cycle 1 Day 1; 120 mg, QD; cut-off April 2023; read-out: Tmax (mean)
test readout: Tmax (h)
Enter your answer as a number in h; do not include the unit.

Report Tmax, nothing else, for this compound: `CC1(C)Oc2cc(Cl)ccc2[C@@H]2OCC3(CCN(CCn4ccnc4)CC3)C[C@H]21` 4

###

measurement protocol: Phase 1 clinical trial: plasma pharmacokinetics
Assay type: in vivo, human
settings: human, plasma, oral, 240 mg, Cycle 1 Day 1; 240 mg, QD; cut-off April 2023; read-out: Cmax (median)
test readout: Cmax (ng/mL)
Give your result in ng/mL as a bare value.

Hello, please tell me recorded Cmax for this one: `CC1(C)Oc2cc(Cl)ccc2[C@@H]2OCC3(CCN(CCn4ccnc4)CC3)C[C@H]21` 148

###

measurement protocol: Phase 1 clinical trial: plasma pharmacokinetics
Format: in vivo, human
settings: human, plasma, oral, 40 mg, Cycle 2 Day 1; 40 mg, QD; cut-off April 2023; read-out: AUC0-24 (median)
test readout: AUC(0-t) (ng·h/mL)
Give the number; ng·h/mL is assumed, so skip it.

Quick one: give measured AUC(0-t) for `CC1(C)Oc2cc(Cl)ccc2[C@@H]2OCC3(CCN(CCn4ccnc4)CC3)C[C@H]21` 1370
